Assay: Human HepG2 cell viability assay in 384 well format
Type: toxicity, cell-based
Set-up: dose 125 nL, time 70.5 hour; concentration not given beside the values
Conditions: HepG2 cells, read-out: Inhibition
Measured cytotoxicity at 70.5 h, listed per entry for reference.
Give the number; % is assumed, so skip it.

In the examples that follow, each entry is paired with its recorded cytotoxicity at 70.5 h.
# compound, recorded-value
records = [
    ("OC1(CNCc2cnc(N3CCOCC3)nc2)CCCCC1", -5.66),
    ("O=C(CCCc1ccccn1)N1CCC(Nc2cccnn2)CC1", -0.523),
    ("O=C(C1CC1)N(Cc1ccc2cc[nH]c2c1)C1CC1", -22.5),
    ("COCc1nc(N(C)C)ncc1C(=O)NC(C)c1ccccc1 (configuration not stated)", -5.51),
    ("O=C(C1CC(=O)N(c2n[nH]c3cc(Br)ccc23)C1)N1CCSCC1 (configuration not stated)", -9.09),
    ("Cc1nc(O)cc(C2CCN(Cc3cccc(F)c3F)C2)n1 (configuration not stated)", -14.5),
]

Now consider the entry below.
Input Cc1noc(C)c1CN(Cc1ccccc1)C(C)C , output reported cytotoxicity at 70.5 h.
12.4

---

Experiment: Human HepG2 cell viability assay in 384 well format
Type: toxicity, cell-based
Parameters: dose 125 nL, time 70.5 hour; concentration not given beside the values
Settings: HepG2 cells, read-out: Inhibition
Measured cytotoxicity at 70.5 h, listed per entry for reference.
Give the number; % is assumed, so skip it.

In the examples that follow, each entry is paired with its recorded cytotoxicity at 70.5 h.
# compound, unit-abbrev, cytotoxicity at 70.5 h
rows = [
    ("O=C(NCc1ccccc1)N1CCC(Oc2ncccc2Cl)CC1", "%", 11),
    ("Cc1cn(CC(=O)NC2CCN(C(C)C)CC2)c2ccccc12", "%", -1.25),
    ("CS(=O)(=O)c1ccccc1C(=O)NCC1Cc2ccccc2O1 (stereo unspecified)", "%", -4.69),
    ("O=C(NC[C@]12COC[C@H]1CN(Cc1cccnc1)C2)c1ccsc1", "%", 11.5),
    ("CN1CCCC1CNC(=O)CCCOc1cccc(F)c1 (stereo unspecified)", "%", 5.1),
]

Input COc1ccc(-n2nnc(C(=O)O)c2-c2ccccn2)cc1 , output reported cytotoxicity at 70.5 h.
-14.5

---

Assay: Human HepG2 cell viability assay in 384 well format
Assay type: toxicity, cell-based
Design: dose 125 nL, time 70.5 hour; concentration not given beside the values
Conditions: HepG2 cells, read-out: Inhibition
Measured cytotoxicity at 70.5 h, listed per entry for reference.
Give the number; % is assumed, so skip it.

# molecule, unit-abbrev, recorded-value
records = [
    ("COc1ccc(-c2cnc(NC(C)=O)[nH]2)cc1", "%", 10.1),
    ("COc1cc(C#N)ccc1OCCN1CCC(n2ccnc2)CC1", "%", -7.5),
    ("COCCC(=O)N1CC2(CCN(c3ccccc3)C2)C1", "%", 3.88),
    ("COc1ccc(-n2ccnc2-c2cnc(C(C)C)nc2)cc1C(=O)O", "%", -3.39),
    ("CC(NC(=O)NCCOc1ccc(F)c(F)c1)c1nncn1C (stereo not drawn)", "%", -0.895),
]

Input CN(C)S(=O)(=O)N1CCN(CC2CCOc3ccccc3C2)CC1 (stereo not drawn) , output reported cytotoxicity at 70.5 h.
-4.7

Input N#Cc1ccc(S(=O)(=O)NCCn2ccnc2)cc1Cl , output reported cytotoxicity at 70.5 h.
-0.547

Input Cc1cnc(NC(=O)NCCOc2ncccc2Cl)s1 , output reported cytotoxicity at 70.5 h.
-4.99

Input CC(C)c1n[nH]c(C2CN(C(=O)c3cc(Cl)c[nH]3)CCO2)n1 (stereo not drawn) , output reported cytotoxicity at 70.5 h.
-8.73

Input CCn1cc(CN2CCN(C(=O)c3cc(C)c(C)s3)CC2)c(C)n1 , output reported cytotoxicity at 70.5 h.
-10.4
